pIC50: −log10 of the molar value.
Could you please report measured pIC50 for the items listed next?

Exercise: Requested read-out pIC50, target or system Acetylcholinesterase (Homo sapiens, UniProt P22303), entry CCNC(=O)Oc1ccc(Cc2nc3cc(C(=O)N(CC)CC)ccc3n2CCC(C)C)cc1
Key: < 4.60

Exercise: Requested read-out pIC50, target or system Acetylcholinesterase (Homo sapiens, UniProt P22303), entry CCN(CC)C(=O)c1ccc2c(c1)nc(Cc1ccc(OC(=O)N(C)c3ccccc3)cc1)n2CCC(C)C
Key: 5.46

Exercise: Requested read-out pIC50, target or system Acetylcholinesterase (Homo sapiens, UniProt P22303), entry CCOc1ccc(Cc2nc3cc(OC(=O)N4CCCC4)ccc3n2CCC(C)C)cc1
Key: < 4.60

Exercise: Requested read-out pIC50, target or system Acetylcholinesterase (Homo sapiens, UniProt P22303), entry CCN(CC)C(=O)c1ccc2c(c1)nc(Cc1ccc(OC(=O)N(C)Cc3ccccc3)cc1)n2CCC(C)C
Key: 5.05

Exercise: Requested read-out pIC50, target or system Acetylcholinesterase (Homo sapiens, UniProt P22303), entry CCOc1ccc(Cc2nc3cc(OC(=O)NC4CC4)ccc3n2CCC(C)C)cc1
Key: < 4.60

Exercise: Requested read-out pIC50, target or system Acetylcholinesterase (Homo sapiens, UniProt P22303), entry CCN(CC)C(=O)c1ccc2c(c1)nc(Cc1ccccc1)n2CCC(C)C
Key: < 4.60

Exercise: Requested read-out pIC50, target or system Acetylcholinesterase (Homo sapiens, UniProt P22303), entry CCN(C)C(=O)Oc1ccc(Cc2nc3cc(C(=O)N(CC)CC)ccc3n2CCC(C)C)cc1
Key: < 4.60

Exercise: Requested read-out pIC50, target or system Acetylcholinesterase (Homo sapiens, UniProt P22303), entry CCCN(C)C(=O)Oc1ccc(Cc2nc3cc(C(=O)N(CC)CC)ccc3n2CCC(C)C)cc1
Key: < 4.60

Exercise: Requested read-out pIC50, target or system Acetylcholinesterase (Homo sapiens, UniProt P22303), entry CCOc1ccc(Cc2nc3cc(OC(=O)N4CCC4)ccc3n2CCC(C)C)cc1
Key: < 4.60

Exercise: Requested read-out pIC50, target or system Acetylcholinesterase (Homo sapiens, UniProt P22303), entry CCOc1ccc(Cc2nc3cc(O)ccc3n2CCC(C)C)cc1
Key: < 4.60

* * *

target: Cannabinoid receptor 2 (Homo sapiens, UniProt P34972); test: Displacement of [3H]CP55940 from human CB2 receptor expressed in HEK293 cell membrane at 10 uM incubated for 3 hrs by scintillation counter analysis relative to control; type: cell membranes
Sequence (P34972 whole entry): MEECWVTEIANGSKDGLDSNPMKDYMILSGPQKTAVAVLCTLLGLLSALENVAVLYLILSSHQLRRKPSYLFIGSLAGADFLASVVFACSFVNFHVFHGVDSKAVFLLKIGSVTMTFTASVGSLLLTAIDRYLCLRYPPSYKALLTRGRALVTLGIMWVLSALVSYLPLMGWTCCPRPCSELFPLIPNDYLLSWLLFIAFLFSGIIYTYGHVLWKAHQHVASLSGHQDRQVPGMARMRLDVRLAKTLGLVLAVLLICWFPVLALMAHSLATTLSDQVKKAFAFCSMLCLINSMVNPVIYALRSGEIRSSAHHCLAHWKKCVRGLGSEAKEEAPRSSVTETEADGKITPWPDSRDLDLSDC
measure: Activity (%)
Numbers only here, please. The scale is %.

Exercise: Requested read-out Activity, target or system Cannabinoid receptor 2 (Homo sapiens, UniProt P34972), entry CCN(CC)C(=O)c1ccc2c(c1)nc(Cc1ccc(OC(=O)NC)cc1)n2CCC(C)C
Key: 33

Exercise: Requested read-out Activity, target or system Cannabinoid receptor 2 (Homo sapiens, UniProt P34972), entry CCNC(=O)Oc1ccc(Cc2nc3cc(C(=O)N(CC)CC)ccc3n2CCC(C)C)cc1
Key: 19

* * *

Below are pIC50 values measured for Cholinesterase (Homo sapiens, UniProt P06276).
Please keep in mind that pIC50 is minus log10 of the molar concentration; only the number is needed.

Exercise: Would you kindly share the measured pIC50 for CCNC(=O)Oc1ccc(Cc2nc3cc(C(=O)N(CC)CC)ccc3n2CCC(C)C)cc1 ?
Key: 6.09

Exercise: Would you kindly share the measured pIC50 for CCOc1ccc(Cc2nc3cc(OC(=O)NC4CC4)ccc3n2CCC(C)C)cc1 ?
Key: 5.87

Exercise: Would you kindly share the measured pIC50 for CCN(C)C(=O)Oc1ccc(Cc2nc3cc(C(=O)N(CC)CC)ccc3n2CCC(C)C)cc1 ?
Key: 6.48

Exercise: Would you kindly share the measured pIC50 for CCN(CC)C(=O)c1ccc2c(c1)nc(Cc1ccc(OC(=O)N(C)Cc3ccccc3)cc1)n2CCC(C)C ?
Key: 6.41

meta.source: ChEMBL document CHEMBL5338756
